The measurements presented in this section are drawn from patent US9611277B2.

Target: human orexin 2 receptor (Homo sapiens (Human), UniProt O43614)
Sequence (O43614 whole entry): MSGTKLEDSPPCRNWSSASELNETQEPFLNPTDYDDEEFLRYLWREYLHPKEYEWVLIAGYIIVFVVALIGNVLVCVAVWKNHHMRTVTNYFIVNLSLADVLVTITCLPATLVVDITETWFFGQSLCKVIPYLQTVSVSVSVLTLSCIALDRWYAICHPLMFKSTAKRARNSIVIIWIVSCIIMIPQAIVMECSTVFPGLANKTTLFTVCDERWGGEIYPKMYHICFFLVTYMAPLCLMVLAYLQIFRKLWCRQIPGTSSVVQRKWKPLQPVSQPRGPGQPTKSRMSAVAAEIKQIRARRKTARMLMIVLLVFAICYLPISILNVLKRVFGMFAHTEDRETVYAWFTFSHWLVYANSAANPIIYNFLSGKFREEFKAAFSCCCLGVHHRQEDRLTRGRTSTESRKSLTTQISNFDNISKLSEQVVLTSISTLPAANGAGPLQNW
Experiment: Human orexin 2 receptor radioligand binding
Settings: human orexin 2 receptor; averages of 2-20 runs; read-out: hOX2 Ki
Field: class. Source value: Ki. Ranges: low: < 500 nM; mid: ≥ 500 nM and < 1000 nM; high: ≥ 1000 nM

COc1ccc(N[C@@H]2C[C@H]3C[C@@H]2N(C(=O)c2ccccc2-n2nccn2)C3)nc1
mid
O=C(c1ccccc1-c1ncc(F)cn1)N1C[C@H]2C[C@@H](Oc3ccc(C(F)(F)F)cn3)[C@@H]1C2
high
O=C(c1c(F)cccc1-n1nccn1)N1C[C@H]2C[C@@H](Nc3cnc(C(F)(F)F)cn3)[C@@H]1C2
low
O=C(c1cccnc1-n1nccn1)N1C[C@H]2C[C@@H](Oc3ccc(C(F)(F)F)cn3)[C@@H]1C2
high
O=C(c1ccc(F)cc1-n1nccn1)N1C[C@H]2C[C@@H](Nc3ccc(C(F)(F)F)cn3)[C@@H]1C2
mid
O=C(c1ncccc1-c1ncccn1)N1C[C@H]2C[C@@H](Oc3ccc(C(F)(F)F)cn3)[C@@H]1C2
low

Q. State the band of `COCCN(c1ccc(C(F)(F)F)cn1)[C@@H]1C[C@H]2C[C@@H]1N(C(=O)c1cccc(F)c1-c1ncccn1)C2`
A. mid

Q. State the band of `O=C(c1cccc(F)c1-c1ncc(F)cn1)N1C[C@H]2C[C@@H](Oc3ccc(C(F)(F)F)cn3)[C@@H]1C2`
A. high

* * *

Molecular target: human orexin 2 receptor (Homo sapiens (Human), UniProt O43614)
Test: Human orexin 2 receptor radioligand binding
Settings: human orexin 2 receptor; averages of 2-20 runs; read-out: hOX2 Ki
For each of the molecules below, state its Ki.
Answers are plain numbers, in nM.

Would you please look over these solved cases?
O=C(c1ccccc1-n1nccn1)N1C[C@H]2C[C@@H](Nc3ccc(C(F)(F)F)nc3)[C@@H]1C2
843
O=C(c1cccc(F)c1-n1nccn1)N1C[C@H]2C[C@@H](Nc3cnc(C(F)(F)F)cn3)[C@@H]1C2
249
Cc1ccc(-c2ncccn2)c(C(=O)N2C[C@@H]3CC[C@H]2[C@H](Oc2ccc(C(F)(F)F)cn2)C3)n1
306
Cc1cnc(N[C@@H]2C[C@H]3C[C@@H]2N(C(=O)c2cccc(F)c2-n2nccn2)C3)cn1
390
Cc1ccc(O[C@@H]2C[C@H]3C[C@@H]2N(C(=O)c2cccc(F)c2-c2ncccn2)C3)nc1
710

Report Ki for every entry below.
1. O=C(c1ccccc1-c1ncccn1)N1C[C@H]2C[C@@H](Oc3ncc(C(F)(F)F)cc3F)[C@@H]1C2
2. O=C(c1cccc(F)c1-c1ncccn1)N1C[C@H]2C[C@@H](Nc3ccc(C(F)F)cn3)[C@@H]1C2

A.
[725, 230]

* * *

Target: UniProtKB O43613
Assay: Human orexin 1 receptor radioligand binding
Settings: read-out: hOX1 Ki
For each of the molecules below, state its pKi.
Numbers only, as −log10 of the molar value.

Cc1ccc(-n2nccn2)c(C(=O)N2C[C@H]3C[C@@H](Nc4ccc(C(F)(F)F)cn4)[C@@H]2C3)n1
8.30

Q. Quickly give me recorded pKi for `Cc1ccc(-n2nccn2)c(C(=O)N2C[C@@H]3CC[C@H]2[C@H](Oc2ccc(C(F)(F)F)cn2)C3)n1`
A. 8.52

* * *

Target: rat orexin 1 receptor (Rattus norvegicus)
Assay: Rat orexin 1 receptor radioligand binding
Details: rat orexin 1 receptor; averages of 2-20 runs; read-out: rOX1 Ki
For each of the compounds below, state its Ki.
Numbers only, in nM.

Would you please look over these solved cases?
O=C(c1ccc(F)cc1-c1ncccn1)N1CC2CCC1C(Nc1cnc(C(F)(F)F)cn1)C2 (racemic) [Example 258]
26
Cc1ccc(C(=O)N2C[C@H]3C[C@@H](Oc4ccc(C(F)(F)F)cn4)[C@@H]2C3)c(-n2ccnn2)n1 [Example 34]
162
Cc1ccc(N[C@@H]2C[C@H]3C[C@@H]2N(C(=O)c2cccc(F)c2-c2ncccn2)C3)cc1 [Example 184]
13
CN(c1ccc(C(F)(F)F)cn1)[C@@H]1C[C@H]2C[C@@H]1N(C(=O)c1ccccc1-n1nccn1)C2 [Example 153]
3
O=C(c1cccc(F)c1-n1nccn1)N1C[C@H]2C[C@@H](Nc3ccc(C(F)(F)F)cn3)[C@@H]1C2 [Example 144]
3

Report Ki for every entry below.
1. O=C(c1cccc(F)c1-c1ncccn1)N1C[C@H]2C[C@@H](Oc3cc(C(F)(F)F)ccn3)[C@@H]1C2 [Example 95]
2. O=C(c1c(F)cccc1-c1ncccn1)N1C[C@@H]2CC[C@H]1[C@H](Nc1cnc(C(F)(F)F)cn1)C2 [Example 279]
3. Cc1cnc(N[C@@H]2C[C@H]3C[C@@H]2N(C(=O)c2cc(F)ccc2-n2nccn2)C3)cn1 [Example 218]
4. COc1ccc(C(=O)N2C[C@H]3C[C@@H](Oc4ccc(C(F)(F)F)cn4)[C@@H]2C3)c(-c2ncccn2)c1 [Example 295]
5. O=C(c1ccccc1-n1nccn1)N1C[C@H]2C[C@@H](Oc3ccc(Cl)cn3)[C@@H]1C2 [Example 112]
6. Cc1cnc(-c2ncccn2)c(C(=O)N2C[C@H]3C[C@@H](Nc4ccc(C(F)(F)F)cn4)[C@@H]2C3)c1 [Example 151]

A.
[29, 11, 31, 19, 8, 21]

Report Ki for every entry below.
1. O=C(c1ccc(F)cc1-n1nccn1)N1C[C@H]2C[C@@H](Nc3ccc(C(F)(F)F)cn3)[C@@H]1C2 [Example 145]
2. Cc1cnc(C(=O)N2C[C@H]3C[C@@H](Nc4ccc(C(F)(F)F)cn4)[C@@H]2C3)c(-c2ncccn2)c1 [Example 149]
3. Cc1ccc(-c2ncccn2)c(C(=O)N2C[C@H]3C[C@@H](Nc4cnc(C(F)(F)F)cn4)[C@@H]2C3)n1 [Example 191]

A.
17
14
15

* * *

Molecular target: rat orexin 1 receptor (Rattus norvegicus, UniProt P56718)
Experiment: Rat orexin 1 receptor radioligand binding
Conditions: rat orexin 1 receptor; averages of 2-20 runs; read-out: rOX1 Ki
pKi: −log10 of the molar value.
True means recorded pKi is 8 or above; False means it is below 8.

Solved entries:
O=C(c1cccc(F)c1-c1ncccn1)N1C[C@H]2C[C@@H](N(CC3CC3)c3cnc(C(F)(F)F)cn3)[C@@H]1C2
False
Cc1cnc(C(=O)N2C[C@H]3C[C@@H](Oc4ccc(C(F)(F)F)cn4)[C@@H]2C3)c(-c2ncccn2)c1
False
O=C(c1ccc(F)cc1-c1ncccn1)N1C[C@H]2C[C@@H](Nc3ccc(Cl)cn3)[C@@H]1C2
False
CCc1cnc(O[C@@H]2C[C@H]3C[C@@H]2N(C(=O)c2nc(C)ccc2-c2ncccn2)C3)nc1
False
CN(c1ccc(C(F)(F)F)cn1)[C@@H]1C[C@H]2C[C@@H]1N(C(=O)c1cc(F)ccc1-c1ncccn1)C2
True
O=C(c1c(F)cccc1-c1ncccn1)N1C[C@H]2C[C@@H](Nc3ccc(C(F)(F)F)cn3)[C@@H]1C2
True
O=C(c1ccc(F)cc1-c1ncccn1)N1C[C@H]2C[C@@H](Oc3cnc(C(F)(F)F)cn3)[C@@H]1C2
False
O=C(c1cccc2cc[nH]c12)N1C[C@H]2C[C@@H](Nc3ccc(C(F)(F)F)cn3)[C@@H]1C2
False

Q. Given O=C(c1ccc(F)cc1-c1ncccn1)N1CC2CCC1C(Oc1ccc(C(F)(F)F)cn1)C2 (racemic) , state whether its pKi is at least 8.
A. False

Q. Given `O=C(c1ccccc1-c1ncccn1)N1C[C@H]2C[C@@H](Nc3ncc(C(F)(F)F)cn3)[C@@H]1C2` , state whether its pKi is at least 8.
A. True

Q. Given `O=C(c1cc(F)ccc1-n1nccn1)N1C[C@H]2C[C@@H](Nc3ccc(C(F)(F)F)cn3)[C@@H]1C2` , state whether its pKi is at least 8.
A. True

Q. Given `Cc1cnc(N[C@@H]2C[C@H]3C[C@@H]2N(C(=O)c2cccc(F)c2-c2ncccn2)C3)cn1` , state whether its pKi is at least 8.
A. False

* * *

For each of the compounds below, state its Ki.
Biological target: rat orexin 1 receptor (Rattus norvegicus)
Experiment: Rat orexin 1 receptor radioligand binding
Conditions: rat orexin 1 receptor; averages of 2-20 runs; read-out: rOX1 Ki
Answers are plain numbers, in nM.

Would you please look over these solved cases?
O=C(c1cccc2cn[nH]c12)N1C[C@H]2C[C@@H](Nc3ccc(C(F)(F)F)cn3)[C@@H]1C2 [Example 186]
123
O=C(c1cc(F)ccc1-n1nccn1)N1CC2CC(Nc3cnc(C(F)(F)F)cn3)C1C2 (stereo not shown) [Example 194]
8
O=C(c1c(F)cccc1-c1ncccn1)N1C[C@H]2C[C@@H](Nc3cnc(C(F)(F)F)cn3)[C@@H]1C2 [Example 200]
7

As a next step, examine the compound that follows.
Q. Quickly give me recorded Ki for Cc1ccc(O[C@@H]2C[C@H]3C[C@@H]2N(C(=O)c2cccc(F)c2-c2ncccn2)C3)nc1 [Example 101]
A. 26
